Where do the numbers come from? From ChEMBL document CHEMBL5257148.

# assayed.system: GTPase KRas (Homo sapiens, UniProt P01116, G12C)
# Sequence (P01116 whole entry G12C): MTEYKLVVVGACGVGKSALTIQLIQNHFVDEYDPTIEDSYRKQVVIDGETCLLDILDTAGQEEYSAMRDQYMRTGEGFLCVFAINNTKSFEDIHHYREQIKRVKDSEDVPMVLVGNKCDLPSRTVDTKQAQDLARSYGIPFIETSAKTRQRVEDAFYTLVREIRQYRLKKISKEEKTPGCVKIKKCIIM
# procedure.text: Inhibition of KRAS G12C mutant (unknown origin) assessed as inhibition of SOS1 mediated nucleotide exchange incubated for 2 hrs in presence of GppNHp by fluorescence based analysis
pIC50: −log10 of the molar value.
The following compounds are listed with their measured pIC50 values.

Here's what some known entries look like.
test.smiles: C=C(F)C(=O)N1CC[C@H](n2nnc3c(O[C@@H](C)[C@@H]4CCCN4C)nc4c(F)c(-c5ncc(F)c6ccccc56)c(C)cc4c32)C[C@H]1CC#N
assayed.system: GTPase KRas (Homo sapiens, UniProt P01116, G12C)
outcome.measure: pIC50
endpoint.result: ≥ 7.30
//
test.smiles: COC/C=C/C(=O)N1CC[C@H](n2nnc3c(O[C@@H](C)[C@@H]4CCCN4C)nc4c(F)c(-c5ncc(F)c6ccccc56)c(C)cc4c32)C[C@H]1CC#N
assayed.system: GTPase KRas (Homo sapiens, UniProt P01116, G12C)
outcome.measure: pIC50
endpoint.result: ≥ 7.30

In the following, a different compound is considered.
Task item: Look up and report measured pIC50 for this entry: Cc1cc2c(nc(O[C@@H](C)[C@@H]3CCCN3C)c3nnn([C@H]4CCN(C(=O)/C=C/CF)[C@H](CC#N)C4)c32)c(F)c1-c1ccc2cnn(C)c2c1
Reply: ≥ 7.30

* * *

The following compounds are listed with their measured pIC50 values.
# assayed.system: GTPase KRas (Homo sapiens, UniProt P01116, G12C)
# procedure.text: Inhibition of KRAS G12C mutant (unknown origin) assessed as inhibition of SOS1 mediated nucleotide exchange incubated for 2 hrs in presence of GppNHp by fluorescence based analysis
pIC50: −log10 of the molar value.

test.smiles: Cc1cccc(-c2c(C)cc3c(nc(N4CC(C)(N(C)C)C4)c4nnn([C@H]5CCN(C(=O)/C=C/CF)[C@H](CC#N)C5)c43)c2F)c1Cl
assayed.system: GTPase KRas (Homo sapiens, UniProt P01116, G12C)
outcome.measure: pIC50
endpoint.result: ≥ 7.30

Task item: Look up and report measured pIC50 for this entry: COC/C=C/C(=O)N1CC[C@H](n2nnc3c(O[C@@H](C)[C@@H]4CCCN4C)nc4c(F)c(-c5nn(C)c6ccccc56)c(C)cc4c32)C[C@H]1CC#N
Reply: ≥ 7.30

Task item: Look up and report measured pIC50 for this entry: COC/C=C/C(=O)N1CC[C@H](n2nnc3c(O[C@@H](C)[C@@H]4CCCN4C)nc4c(F)c(-c5ccc(F)cc5)c(C)cc4c32)C[C@H]1CC#N
Reply: ≥ 7.30
